# Assay System: Epidermal growth factor receptor (Homo sapiens)
# Assay Name: Inhibition of EGFR at 10 uM by HTRF assay relative to control
Metric Name: inhibition (%)

Sample answers from the record:
| Molecule | inhibition [%] |
| --- | --- |
| Cc1cccc(Oc2ccnc(N3CCN(CC(=O)Nc4cccc5c4CCCC5)CC3)n2)c1 | 0 |
| COc1ccc(-c2noc(CN3CCN(c4cc(Nc5cccc(O)c5)ncn4)CC3)n2)cc1 | 17 |
| Cc1ccc(CN2CCN(c3nccc(C(C#N)c4ccccn4)n3)CC2)cc1 (stereo not given) | 0 |

a. Cc1cccc(N(C)c2cc(Nc3cccc(C(=O)N(C)CCc4ccccn4)c3)ncn2)c1
b. Cc1cccc(N(C)c2cc(N3CCN(C(=O)Cc4c[nH]c5ccccc45)CC3)ncn2)c1
Which shows the larger inhibition value: a or b ? Lab log: write the label of the selected item as the result. a
(a: 97%, b: 0%)

---

# Assay System: Ribosomal protein S6 kinase alpha-3 (Homo sapiens)
# Assay Name: Inhibition of RSK2 at 10 uM by HTRF assay relative to control
Metric Name: inhibition (%)

| Molecule | U | inhibition |
| --- | --- | --- |
| O=C(c1nc(SCc2ccc(Cl)cc2)n2ccccc12)N1CCN(c2cc(Nc3cccc(Br)c3)ncn2)CC1 | % | 0 |
| Cc1cccc(N(C)c2cc(Nc3cccc(C(=O)NCCCn4ccnc4)c3)ncn2)c1 | % | 0 |
| COc1ccc(NC(=O)Cc2ccc(Nc3cc(N(C)c4cccc(C)c4)ncn3)cc2)cn1 | % | 0 |
| Cc1cccc(N(C)c2cc(N3CCN(C(=O)Cc4c[nH]c5ccccc45)CC3)ncn2)c1 | % | 0 |
| Cc1cccc(Nc2cc(Nc3cccc(C(=O)N(CC(C)O)CC(C)O)c3)ncn2)c1 (centres undefined) | % | 0 |
| O=C(c1nc(SCc2ccc(Cl)cc2)n2ccccc12)N1CCN(c2ncnc3c2CN(Cc2ccccc2)CC3)CC1 | % | 0 |
| Nc1nc(N2CCOCC2)cc(N2CCC(C(=O)NCCc3ccc(O)cc3)CC2)n1 | % | 0 |
| CN(C)CC(C)(C)CNC(=O)[C@@H]1CCCN1c1nccc(Nc2ccccc2)n1 | % | 0 |

P. Cc1cccc(Nc2nccc(Nc3cccc(C(=O)NCc4ccc(N(C)C)cc4)c3)n2)c1
Q. COC[C@@H]1CCCN1C(=O)C1CCCN1c1cc(Nc2cccc(Br)c2)ncn1 (some centres undefined)
# return whichever of P and Q has the smaller inhibition Lab log: write the label of the selected item as the result. Q
(Q: 0%, P: 5%)

1. CN(C)CC(C)(C)CNC(=O)C1CCN(c2cc(N3CCOCC3)nc(N)n2)CC1
2. Cc1cccc(Nc2nccc(Nc3cccc(C(=O)N(C)CCc4ccccn4)c3)n2)c1
# return whichever of 1 and 2 has the smaller inhibition Lab log: write the label of the selected item as the result. 1

P. Clc1ccc2sc(CN3CCN(c4ncnc5c4CN(Cc4ccccc4)CC5)CC3)cc2c1
Q. Cc1cccc(Oc2ccnc(N3CCC[C@H]3C(=O)NCCCn3ccnc3)n2)c1
# return whichever of P and Q has the smaller inhibition Lab log: write the label of the selected item as the result. Q
(Q: 0%, P: 5%)

---

# Assay System: Mitogen-activated protein kinase 14 (Homo sapiens)
# Assay Name: Inhibition of p38alpha at 10 uM by HTRF assay relative to control
Metric Name: inhibition (%)

| Compound | U | inhibition |
| --- | --- | --- |
| Cc1cccc(Oc2ccnc(N3CCC[C@H]3C(=O)NCc3cccnc3)n2)c1 | % | 0 |
| Cc1ccc(CN2CCN(c3nccc(C(C#N)c4ccccn4)n3)CC2)cc1 (stereo not drawn) | % | 2 |
| Cc1cccc(N(C)c2cc(N3CCN(C(=O)Cc4c[nH]c5ccccc45)CC3)ncn2)c1 | % | 6 |
| Nc1nc(Nc2ccc3ncsc3c2)cc(N2CCC[C@H]2C(=O)N[C@@H](CO)c2ccccc2)n1 | % | 7 |
| O=C(c1nc(SCc2ccc(Cl)cc2)n2ccccc12)N1CCN(c2ncnc3c2CN(Cc2ccccc2)CC3)CC1 | % | 5 |

1. O=C(C1CCN(c2nccc(Nc3ccccc3)n2)CC1)N1CC[C@@H](O)C1
2. Cc1cccc(Nc2nccc(Nc3cccc(C(=O)N(C)CCc4ccccn4)c3)n2)c1
Which shows the larger inhibition value: 1 or 2 ? Lab log: write the label of the selected item as the result. 2
(2: 3%, 1: 0%)

1. Nc1nc(N2CCOCC2)cc(N2CCC(C(=O)NCCc3ccc(O)cc3)CC2)n1
2. COc1cccc(Nc2cc(Nc3cccc(C(=O)N(C)CCc4ccccn4)c3)nc(N)n2)c1
3. COc1ccc(NC(=O)Cc2ccc(Nc3cc(N(C)c4cccc(C)c4)ncn3)cc2)cn1
4. CN(C)CC(C)(C)CNC(=O)c1cccc(Nc2nccc(Nc3ccc4ncsc4c3)n2)c1
Rank ascending by inhibition. Quick reminder: the answer is the labels in the order asked. 3, 2, 1, 4

---

# Assay System: Fibroblast growth factor receptor 1 (Homo sapiens) (UniProt P11362)
# Sequence (P11362 22-822 limits assumed): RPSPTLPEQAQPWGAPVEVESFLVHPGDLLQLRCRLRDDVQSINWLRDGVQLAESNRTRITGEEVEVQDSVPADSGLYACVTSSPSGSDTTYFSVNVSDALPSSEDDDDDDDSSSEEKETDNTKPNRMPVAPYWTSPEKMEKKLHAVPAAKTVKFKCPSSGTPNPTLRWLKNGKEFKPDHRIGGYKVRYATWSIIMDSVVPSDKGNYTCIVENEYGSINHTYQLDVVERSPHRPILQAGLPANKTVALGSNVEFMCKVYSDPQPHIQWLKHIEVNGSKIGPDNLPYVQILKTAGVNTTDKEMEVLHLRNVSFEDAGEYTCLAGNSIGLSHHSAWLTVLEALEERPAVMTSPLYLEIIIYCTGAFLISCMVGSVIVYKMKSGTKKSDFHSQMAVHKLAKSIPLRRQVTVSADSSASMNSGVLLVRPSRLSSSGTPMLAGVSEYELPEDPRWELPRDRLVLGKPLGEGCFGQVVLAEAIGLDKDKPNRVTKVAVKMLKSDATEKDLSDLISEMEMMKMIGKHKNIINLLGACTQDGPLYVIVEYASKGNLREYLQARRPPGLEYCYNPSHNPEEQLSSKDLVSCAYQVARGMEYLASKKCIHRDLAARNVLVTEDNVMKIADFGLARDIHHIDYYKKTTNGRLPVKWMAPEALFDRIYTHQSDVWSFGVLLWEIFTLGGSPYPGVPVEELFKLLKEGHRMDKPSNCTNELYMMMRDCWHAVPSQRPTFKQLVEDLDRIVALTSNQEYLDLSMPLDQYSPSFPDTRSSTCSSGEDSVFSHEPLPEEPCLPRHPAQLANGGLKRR
# Assay Name: Inhibition of FGFR1 at 10 uM by HTRF assay relative to control
Metric Name: inhibition (%)

| Molecule | U | inhibition |
| --- | --- | --- |
| Cc1cccc(N(C)c2cc(Nc3cccc(C(=O)N(CC(C)C)CC(C)C)c3)ncn2)c1 | % | 0 |
| Cc1cccc(Nc2nccc(Nc3cccc(C(=O)N(C)CCc4ccccn4)c3)n2)c1 | % | 82 |

A. Nc1nc(Nc2ccc3ncsc3c2)cc(N2CCC[C@H]2C(=O)N[C@@H](CO)c2ccccc2)n1
B. Nc1nc(Nc2ccc(C(=O)NCCc3ccncc3)cc2)cc(N2CCOCC2)n1
C. Cc1cccc(N(C)c2cc(Nc3cccc(C(=O)NCc4ccc(N(C)C)cc4)c3)ncn2)c1
D. O=C(NCc1cccnc1)c1cccc(-c2ccc(Nc3ccc4ncsc4c3)nn2)c1
Rank ascending by inhibition. Quick reminder: the answer is the labels in the order asked. B, C, A, D
(B: 0%, C: 3%, A: 7%, D: 49%)

a. COc1ccc(-c2noc(CN3CCN(c4cc(Nc5cccc(O)c5)ncn4)CC3)n2)cc1
b. COc1cccc(Nc2cc(Nc3cccc(C(=O)NCCCn4ccnc4)c3)nc(N)n2)c1
c. Cc1cccc(Nc2nccc(Nc3cccc(C(=O)NCc4ccc(N(C)C)cc4)c3)n2)c1
d. Cc1cccc(Nc2cc(Nc3cccc(C(=O)N(CC(C)O)CC(C)O)c3)ncn2)c1 (stereo not given)
e. Cc1cccc(Oc2ccnc(N3CCC[C@H]3C(=O)NCCCn3ccnc3)n2)c1
Rank order required: inhibition, descending. Quick reminder: the answer is the labels in the order asked. d, c, b, e, a

1. Cc1cc(C(=O)N2CCN(c3ncnc4c3CN(Cc3ccccc3)CC4)CC2)c(C)n1C
2. Cc1cccc(CN2CCN(c3cc(N(C)c4cccc(C)c4)ncn3)CC2)c1
# return whichever of 1 and 2 has the smaller inhibition Lab log: write the label of the selected item as the result. 1

a. COC[C@@H]1CCCN1C(=O)C1CCCN1c1cc(Nc2cccc(Br)c2)ncn1 (stereo not given in full)
b. Cc1cccc(N(C)c2cc(N3CCN(C(=O)Cc4c[nH]c5ccccc45)CC3)ncn2)c1
Which shows the larger inhibition value: a or b ? Lab log: write the label of the selected item as the result. b
(b: 5%, a: 0%)

---

# Assay System: High affinity nerve growth factor receptor (Homo sapiens) (UniProt P04629)
# Sequence (P04629 33-796 limits assumed): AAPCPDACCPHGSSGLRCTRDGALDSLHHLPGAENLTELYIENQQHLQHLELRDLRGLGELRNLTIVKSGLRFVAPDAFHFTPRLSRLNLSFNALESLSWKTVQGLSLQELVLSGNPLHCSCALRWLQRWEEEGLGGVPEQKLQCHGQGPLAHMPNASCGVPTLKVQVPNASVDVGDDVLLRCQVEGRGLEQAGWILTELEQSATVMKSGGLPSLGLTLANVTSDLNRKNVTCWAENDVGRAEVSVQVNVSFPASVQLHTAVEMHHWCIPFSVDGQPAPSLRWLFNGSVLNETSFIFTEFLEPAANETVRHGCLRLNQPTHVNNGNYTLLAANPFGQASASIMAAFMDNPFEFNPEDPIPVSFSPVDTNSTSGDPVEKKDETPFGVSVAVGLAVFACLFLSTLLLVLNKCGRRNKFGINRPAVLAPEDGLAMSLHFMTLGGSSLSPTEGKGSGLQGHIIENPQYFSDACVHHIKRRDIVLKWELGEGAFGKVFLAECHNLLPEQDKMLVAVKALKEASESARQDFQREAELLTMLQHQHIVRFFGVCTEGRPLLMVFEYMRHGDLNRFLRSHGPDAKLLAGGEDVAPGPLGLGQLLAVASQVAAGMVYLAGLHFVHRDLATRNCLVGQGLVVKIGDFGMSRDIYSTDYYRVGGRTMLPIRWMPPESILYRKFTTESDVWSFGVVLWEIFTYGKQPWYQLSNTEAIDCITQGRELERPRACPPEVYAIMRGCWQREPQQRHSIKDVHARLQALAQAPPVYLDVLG
# Assay Name: Inhibition of TrkA at 10 uM by HTRF assay relative to control
Metric Name: inhibition (%)

Sample answers from the record:
| Compound | Val |
| --- | --- |
| Nc1nc(Nc2ccccc2)cc(N2CCC(C(=O)NCCc3ccccn3)CC2)n1 | 5 |
| Cc1cccc(Oc2ccnc(N3CCC[C@H]3C(=O)NCc3cccnc3)n2)c1 | 4 |
| Cc1ccc(CN2CCN(c3nccc(C(C#N)c4ccccn4)n3)CC2)cc1 (stereo not given) | 5 |

a. Nc1nc(N2CCOCC2)cc(N2CCC(C(=O)NCCc3ccc(O)cc3)CC2)n1
b. Cc1cc(C(=O)N2CCN(c3ncnc4c3CN(Cc3ccccc3)CC4)CC2)c(C)n1C
Which shows the larger inhibition value: a or b ? Lab log: write the label of the selected item as the result. a

---

# Assay System: UniProtKB P17252
# Assay Name: Inhibition of PKCalpha at 10 uM by HTRF assay relative to control
Metric Name: inhibition (%)

Sample answers from the record:
| Line Notation | Metric Name | Val |
| --- | --- | --- |
| Cc1cccc(N(C)c2cc(Nc3ccc(CC(=O)Nc4ccc5ncsc5c4)cc3)ncn2)c1 | inhibition | 0 |
| O=C(NCCc1ccc(O)cc1)c1cccc(Nc2nccc(Nc3ccc4ncsc4c3)n2)c1 | inhibition | 0 |
| COc1cccc(Nc2cc(N3CCC[C@H]3C(=O)NCCN3CCCCC3)nc(N)n2)c1 | inhibition | 5 |
| O=C(NCc1cccnc1)c1cccc(-c2ccc(Nc3ccc4ncsc4c3)nn2)c1 | inhibition | 0 |
| Cc1cccc(N(C)c2cc(N3CCN(C(=O)Cc4c[nH]c5ccccc45)CC3)ncn2)c1 | inhibition | 0 |

A. Nc1nc(Nc2ccc(C(=O)NCCc3ccncc3)cc2)cc(N2CCOCC2)n1
B. Cc1cccc(Nc2nccc3c2CN(C(=O)c2cc(C)n(C)c2C)CC3)c1
# return whichever of A and B has the smaller inhibition Lab log: write the label of the selected item as the result. A
